- measurementTarget: HLA-A*29:02
- measurementNotes: IEDB peptide-MHC binding, purified MHC/competitive/fluorescence; filed as Kd, often an IC50 or EC50 that approximates it; bounds were set here for any values at or beyond the usual limits of such assays
- particulars: source organism: Escherichia coli HS

| sequenceText | uom | Kd |
| --- | --- | --- |
| QKMHNHYAY | nM | 19.9 |

* * *

- measurementTarget: HLA-B*46:01
- measurementNotes: IEDB peptide-MHC binding, purified MHC/competitive/fluorescence; filed as Kd, often an IC50 or EC50 that approximates it; bounds were set here for any values at or beyond the usual limits of such assays
- particulars: source organism: Mycobacterium tuberculosis variant bovis BCG str. Pasteur 1173P2

| sequenceText | Kd (nM) |
| --- | --- |
| FMFDYIPPV | 10.1 |

* * *

- measurementTarget: HLA-B*18:01
- measurementNotes: IEDB peptide-MHC binding, purified MHC/competitive/fluorescence; filed as Kd, often an IC50 or EC50 that approximates it; bounds were set here for any values at or beyond the usual limits of such assays
- particulars: source organism: Giardia lamblia ATCC 50803
pKd: −log10 of the molar value.
measuredQuantity: pKd

| sequenceText | measuredQuantity | valueObserved |
| --- | --- | --- |
| TELPLAYER | pKd | 6.40 |

* * *

- measurementTarget: HLA-A*02:01
- measurementNotes: IEDB peptide-MHC binding, purified MHC/competitive/fluorescence; filed as Kd, often an IC50 or EC50 that approximates it; bounds were set here for any values at or beyond the usual limits of such assays
- particulars: source organism: Vaccinia virus Copenhagen

| sequenceText | measurementTarget | Kd / nM |
| --- | --- | --- |
| KLGIGNSPV | HLA-A*02:01 | 6 |

* * *

- measurementTarget: HLA-B*53:01
- measurementNotes: IEDB peptide-MHC binding, purified MHC/competitive/fluorescence; bounds were set here for any values at or beyond the usual limits of such assays
- particulars: source organism: Homo sapiens

| sequenceText | IC50 [µM] |
| --- | --- |
| FPHTELANL | 0.221 |

* * *

- measurementTarget: HLA-B*27:05
- measurementNotes: IEDB peptide-MHC binding, purified MHC/direct/fluorescence; filed as Kd, often an IC50 or EC50 that approximates it; bounds were set here for any values at or beyond the usual limits of such assays
- particulars: source organism: Mycobacterium avium 104
measuredQuantity: Kd

| sequenceText | measurementTarget | measuredQuantity | valueObserved |
| --- | --- | --- | --- |
| IAHVRDVVM | HLA-B*27:05 | Kd | ≥ 20 µM |

* * *

- measurementTarget: HLA-B*57:01
- measurementNotes: IEDB peptide-MHC binding, purified MHC/competitive/fluorescence; filed as Kd, often an IC50 or EC50 that approximates it; bounds were set here for any values at or beyond the usual limits of such assays
- particulars: source organism: Homo sapiens

| sequenceText | Kd |
| --- | --- |
| SVDSDHLGY | ≥ 20 µM |

* * *

- measurementTarget: HLA-B*15:17
- measurementNotes: IEDB peptide-MHC binding, purified MHC/competitive/fluorescence; filed as Kd, often an IC50 or EC50 that approximates it; bounds were set here for any values at or beyond the usual limits of such assays
- particulars: source organism: Choclo virus
pKd: −log10 of the molar value.

| sequenceText | pKd |
| --- | --- |
| GRFQEALKK | ≤ 4.70 |

* * *

- measurementTarget: HLA-A*24:02
- measurementNotes: IEDB peptide-MHC binding, purified MHC/direct/fluorescence; filed as Kd, often an IC50 or EC50 that approximates it; bounds were set here for any values at or beyond the usual limits of such assays
- particulars: source organism: Influenza A virus (A/Hong Kong/516/97(H5N1))
pKd: −log10 of the molar value.

| sequenceText | pKd |
| --- | --- |
| SYINRTGTF | 8.27 |

* * *

- measurementTarget: HLA-B*27:05
- measurementNotes: IEDB peptide-MHC binding, purified MHC/direct/fluorescence; filed as Kd, often an IC50 or EC50 that approximates it; bounds were set here for any values at or beyond the usual limits of such assays
- particulars: source organism: Influenza A virus (A/tiger/Thailand/CU-T4/04(H5N1))
pKd: −log10 of the molar value.

| sequenceText | pKd |
| --- | --- |
| TMLYNKMEF | ≤ 4.70 |

* * *

- measurementTarget: HLA-A*01:01
- measurementNotes: IEDB peptide-MHC binding, purified MHC/direct/fluorescence; filed as Kd, often an IC50 or EC50 that approximates it; bounds were set here for any values at or beyond the usual limits of such assays
- particulars: source organism: Influenza A virus (A/Hong Kong/516/97(H5N1))

| sequenceText | measurementTarget | Kd |
| --- | --- | --- |
| SYINRTGTF | HLA-A*01:01 | ≥ 20 µM |

* * *

- measurementTarget: HLA-A*26:01
- measurementNotes: IEDB peptide-MHC binding, purified MHC/competitive/radioactivity; filed as Kd, often an IC50 or EC50 that approximates it; bounds were set here for any values at or beyond the usual limits of such assays
- particulars: source organism: Dengue virus 3 Sri Lanka/1266/2000
pKd: −log10 of the molar value.
measuredQuantity: pKd

| sequenceText | measurementTarget | valueObserved |
| --- | --- | --- |
| LLIVSGIFPY | HLA-A*26:01 | 4.95 |

* * *

- measurementTarget: HLA-A*02:01
- measurementNotes: IEDB peptide-MHC binding, purified MHC/competitive/radioactivity; filed as Kd, often an IC50 or EC50 that approximates it; bounds were set here for any values at or beyond the usual limits of such assays
- particulars: source organism: Homo sapiens

| sequenceText | measurementTarget | uom | signQualifier | Kd |
| --- | --- | --- | --- | --- |
| EMKTQLEEL | HLA-A*02:01 | µM | ≥ | 20.8 |
| ITQLMPFGC | HLA-A*02:01 | µM | = | 6.29 |
| PLEGSEDRII | HLA-A*02:01 | µM | ≥ | 70.3 |
| YMIDPSGVSY | HLA-A*02:01 | µM | = | 0.651 |

* * *

- measurementTarget: HLA-B*15:01
- measurementNotes: IEDB peptide-MHC binding, purified MHC/competitive/fluorescence; filed as Kd, often an IC50 or EC50 that approximates it; bounds were set here for any values at or beyond the usual limits of such assays
- particulars: source organism: Coxiella burnetii 'MSU Goat Q177'

| sequenceText | Kd |
| --- | --- |
| AVDWYQQRI | ≥ 20 µM |

* * *

- measurementTarget: HLA-A*31:01
- measurementNotes: IEDB peptide-MHC binding, purified MHC/competitive/radioactivity; filed as Kd, often an IC50 or EC50 that approximates it; bounds were set here for any values at or beyond the usual limits of such assays
- particulars: source organism: Mammarenavirus lassaense

| sequenceText | measurementTarget | Kd |
| --- | --- | --- |
| TYLGPQFCK | HLA-A*31:01 | 5.08 µM |

* * *

- measurementTarget: HLA-B*27:03
- measurementNotes: IEDB peptide-MHC binding, purified MHC/direct/fluorescence; filed as Kd, often an IC50 or EC50 that approximates it; bounds were set here for any values at or beyond the usual limits of such assays
- particulars: source organism: Burkholderia mallei ATCC 23344
pKd: −log10 of the molar value.

| sequenceText | pKd |
| --- | --- |
| LVTGAGSGF | ≤ 4.70 |

* * *

- measurementTarget: HLA-B*46:01
- measurementNotes: IEDB peptide-MHC binding, purified MHC/direct/fluorescence; filed as Kd, often an IC50 or EC50 that approximates it; bounds were set here for any values at or beyond the usual limits of such assays
- particulars: source organism: Cowpox virus
pKd: −log10 of the molar value.
measuredQuantity: pKd

| sequenceText | valueObserved |
| --- | --- |
| YHRPLTGYM | ≤ 4.70 |

* * *

// values below are reported Kd
- measurementTarget: HLA-B*07:02
- measurementNotes: IEDB peptide-MHC binding, purified MHC/direct/fluorescence; filed as Kd, often an IC50 or EC50 that approximates it; bounds were set here for any values at or beyond the usual limits of such assays
- particulars: source organism: Homo sapiens

| sequenceText | Kd / nM |
| --- | --- |
| LPRWPPPQL | 164 |
| GVRQFSGWM | 22.1 |

* * *

- measurementTarget: HLA-B*15:01
- measurementNotes: IEDB peptide-MHC binding, purified MHC/direct/fluorescence; filed as Kd, often an IC50 or EC50 that approximates it; bounds were set here for any values at or beyond the usual limits of such assays
- particulars: source organism: Burkholderia mallei
pKd: −log10 of the molar value.

| sequenceText | pKd |
| --- | --- |
| RRSLLAHVR | ≤ 4.70 |

* * *

- measurementTarget: HLA-A*69:01
- measurementNotes: IEDB peptide-MHC binding, purified MHC/direct/fluorescence; filed as Kd, often an IC50 or EC50 that approximates it; bounds were set here for any values at or beyond the usual limits of such assays
- particulars: source organism: Mycoplasmoides genitalium

| sequenceText | Kd / nM |
| --- | --- |
| YSDIPRLKK | 412 |
